system: Fibrinogen (Alexa647-labelled); assay: fibrinogen binders on compound microarrays, profiling panel, artefact control for SMM control-protein annotation, biochemical, small-molecule microarray, 635/667 nm fluorescence (AID 1131); details: fibrinogen-A647 binding fluorescence, higher = more signal;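 further: z-score merges 667 nm fluorescence with per-spot signal-to-noise over triplicate slides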
Please respond with reported composite z-score for every item in the list.
// no unit, no text: just the number

Request - read-out composite z-score | tested on Fibrinogen (Alexa647-labelled) | molecule C=C[C@H](OC)[C@@H](OC(=O)Nc1ccc(OC)cc1)c1ccc(OC)c(O)c1
-2.93

Given the entry [N-]=[N+]=NCc1ccccc1C[C@]1(C(=O)NCc2ccccc2)N=C(c2ccc(OCCCO)cc2)O[C@H]1c1ccccc1 , what composite z-score was observed with Fibrinogen (Alexa647-labelled)?
0.813

Lab note: need composite z-score with Fibrinogen (Alexa647-labelled) for entry COc1ccc(C#Cc2ccc3c(c2)[C@]2(C(=O)N3)[C@H](c3ccc(O)cc3)N3[C@H](c4ccccc4)[C@H](c4ccccc4)OC(=O)[C@H]3[C@@H]2C(=O)N2CCN(c3ncccn3)CC2)cc1 , please look it up.
0.763

Find the measured composite z-score: item C#CCN1C(C(=O)OCC)OC[C@H]1c1ccccc1 (stereo partly drawn) , target or system Fibrinogen (Alexa647-labelled).
0.559

Form: Entry = C=C(COC)C(=O)CC[C@@H](OC(=O)c1ccccc1-c1ccccc1C(=O)O)c1cccc(OCCO)c1 | System = Fibrinogen (Alexa647-labelled) | composite z-score = ____
-0.661

# query: composite z-score | item CC(C)N1CC=CC23O[C@@H]4/C=C\CCCOC(=O)C4[C@H]2C(=O)N(CCCO)[C@@H]3C1=O (stereo partly drawn) | system: Fibrinogen (Alexa647-labelled)
-1.72

Give Fibrinogen (Alexa647-labelled) composite z-score for COc1ccc([Si](C)(C)[C@H]2[C@H](CC(=O)N3Cc4ccccc4C[C@H]3CO)O[C@@]3(C(=O)N(Cc4cccc(N5C(=O)COc6ccccc65)c4)c4ccccc43)[C@@H]2C)cc1
0.585

Item: C=CC[C@]1(C(=O)N(C)C)N=C(c2ccc(OCCCO)cc2)O[C@H]1c1ccccc1CN=[N+]=[N-] Test system: Fibrinogen (Alexa647-labelled) Read-out: composite z-score Value: ?
0.415

Please state recorded composite z-score (tested on Fibrinogen (Alexa647-labelled)) of [N-]=[N+]=Nc1ccccc1[C@H]1OC(c2ccc(OCCCO)cc2)=N[C@@]1(Cc1ccccc1)C(N)=O
0.997

# query: composite z-score | item CN1C=C(C(=O)OCCS(C)(=O)=O)C(C(=O)OCCS(C)(=O)=O)=CC(CCCO)=CC1c1cccs1 (stereo not drawn) | system: Fibrinogen (Alexa647-labelled)
-0.463

Kindly state the measured composite z-score obtained for CCCNC(=O)[C@@]1(Sc2ccc(C)cc2)CC(=O)N(Cc2cc(C(F)(F)F)cc(C(F)(F)F)c2)[C@@H]1c1ccc(CO)cc1I with Fibrinogen (Alexa647-labelled).
-0.0242

Lab request: please report composite z-score under test system Fibrinogen (Alexa647-labelled) for CC(C)NC(=O)[C@@H]1c2ccccc2C(=O)N(Cc2cc(F)cc(C(F)(F)F)c2)[C@H]1c1ccc(CO)cc1
-1.41

Could you share what composite z-score was measured for COc1ccc([Si](C)(C)[C@H]2[C@H](CC(=O)N(CCO)Cc3ccccc3)O[C@@]3(C(=O)N(Cc4ccc(N5CCOC5=O)cc4)c4ccccc43)[C@@H]2C)cc1 , tested on Fibrinogen (Alexa647-labelled)?
0.474

Request body: readout composite z-score, system Fibrinogen (Alexa647-labelled), query C[C@@H](OCc1ccccc1)C1NC(=O)[C@@]23C(=O)N[C@@H](Cc4ccccc4)C2[C@H](C)[C@@]2(C)O[C@H]2C3/C=C/C/C=C\CNC(=O)[C@@H]2CCCN2C1=O (stereo partly drawn) . Return the value.
-0.632

# get_value(readout= composite z-score, system= Fibrinogen (Alexa647-labelled)) for CC(C)[C@@H](C(=O)O)n1cc(-c2ccccn2)nn1
0.811

Query for Fibrinogen (Alexa647-labelled): what composite z-score does the record show for C=C(COC)/C(=C/C[C@H](OC(C)=O)c1cccc(OCCO)c1)c1cc(C(=O)OC)ccc1OC ?
-0.488

Kindly state the measured composite z-score obtained for CC(C)CNC(=O)[C@@H]1c2ccccc2C(=O)N(Cc2ccc(OC(F)(F)F)cc2)[C@H]1c1ccc(CO)cc1 with Fibrinogen (Alexa647-labelled).
0.647

Param readout= composite z-score; system= Fibrinogen (Alexa647-labelled); entry= CC(C)C[C@@H]1NC(=O)[C@@]23C(=O)N[C@@H](Cc4ccccc4)C2[C@H](C)[C@@]2(C)O[C@H]2C3/C=C/C/C=C\CNC(=O)[C@H](Cc2ccccc2)NC1=O (stereo partly drawn) ; returns value.
0.894

Lookup: composite z-score / Fibrinogen (Alexa647-labelled) / CCCCC(=C=CC[C@@H](O)c1ccc(OCCO)cc1)C[C@@H](O)c1cc(Cl)cc(Cl)c1O
0.556

Request body: readout composite z-score, system Fibrinogen (Alexa647-labelled), query COCCCNC(=O)[C@@]1(Cc2ccccc2)N=C(c2ccc(OCCCO)cc2)O[C@H]1c1ccccc1N=[N+]=[N-] . Return the value.
0.881

Requested read-out composite z-score, target or system Fibrinogen (Alexa647-labelled), entry C=CCC(OC(C)=O)[C@@H]1[C@@H](N(Cc2cccc3ccccc23)C(=O)c2cccc3ccccc23)c2cc(OCCCO)ccc2N1C(=O)Cc1ccc(OC)cc1 (stereo partly drawn)
0.263

Give composite z-score (Fibrinogen (Alexa647-labelled)) of the following molecule: CC(CO)N1C(=O)[C@@H]2C3C(=O)OCCC/C=C\[C@H]3OC23C=CCN(Cc2ccccc2)C(=O)[C@@H]13 (stereo partly drawn)
-1.52

Checklist item: composite z-score tested on Fibrinogen (Alexa647-labelled), entry C=CCC(OC(C)=O)[C@@H]1[C@@H](N(Cc2cccc3ccccc23)C(=O)Cc2ccc(OC)cc2)c2cc(OCCCO)ccc2N1C(=O)Cc1ccc(OC)cc1 (stereo partly drawn) , value?
0.849
